Tested on: HT-29
Assay: NCI tumour cell line growth inhibition, 48 h
Activity calls are given as the source filed them. No stated cut-off is given here; in the data, active = GI50 up to about 1.1 µM and inactive = higher.
Outcome codes: active, inactive

compound=O=c1[nH]nc(Nc2ccc(Cl)cc2)c2nnn(-c3ccc([N+](=O)[O-])cc3)c12 discrete_label=inactive
compound=O=C(NCCCCCCCCNC(=O)c1cc(-c2ccccc2)nc2ccccc12)c1cc(-c2ccccc2)nc2ccccc12 discrete_label=inactive
compound=CS(=O)(=O)c1nc(-c2cc3c(c(S(C)(=O)=O)n2)CCC3)cc2c1CCC2 discrete_label=inactive
compound=CN(O)C(=O)/C=C/c1ccc(OCc2cccc(Cl)c2)cc1 discrete_label=inactive
compound="CCC1C(=O)OCc2c1cc1n(c2=O)CCC12OCCO2 (stereo unspecified)" discrete_label=inactive
compound=O=C(O)c1cc(/N=C/c2ccccc2O)cc(C(=O)O)c1 discrete_label=inactive
compound=COc1c(Cl)cc(NC(=S)C#N)cc1Cl discrete_label=inactive
compound="Cc1ccc(NC(=O)CCC(=O)C2CC(=O)CCC2=O)cc1C (stereo unspecified)" discrete_label=inactive
compound=CCCC(=O)Nc1cc2c3c(c1)CCCN3CCC2 discrete_label=inactive
compound=O=C1Nc2ccccc2/C1=N/NC(=S)N1CCCCC1 discrete_label=active
compound=Cc1nc(N(CCO)CCO)c2sc(=S)n(-c3ccccc3)c2n1 discrete_label=inactive

====

Recorded GI50 for the following compounds
System: NCI/ADR-RES
Test: NCI tumour cell line growth inhibition, 48 h
The source made the active and inactive calls. Cut-off read from the data, not from the text of the source: active = GI50 up to about 1.1 µM and inactive = higher.
readout-name: GI50

compound="O=C1c2ccccc2C(=O)C2NC(CCCCCSSCCCCCC3=NC4C(=O)c5ccccc5C(=O)C4N3)=NC12 (stereo not given)" target_or_system=NCI/ADR-RES readout_name=GI50 recorded_result="> 100 µM (inactive)"
compound=NC(=S)NNC(=S)NC(=O)c1ccco1 target_or_system=NCI/ADR-RES readout_name=GI50 recorded_result="> 10 µM (inactive)"
compound=N#C/C(C(=S)NCc1ccccc1)=C(/N)N1CCCC1 target_or_system=NCI/ADR-RES readout_name=GI50 recorded_result="> 100 µM (inactive)"
compound=Cc1cc(S(=O)(=O)NC2=NCc3nc4ccccc4n32)c(S)cc1Cl target_or_system=NCI/ADR-RES readout_name=GI50 recorded_result="19.6 µM (inactive)"
compound=O=C1/C(=C/c2ccccc2S)N=C(c2ccccc2)N1c1ccc2c(c1)Sc1cc(N3C(=O)/C(=C/c4ccccc4S)N=C3c3ccccc3)ccc1N2 target_or_system=NCI/ADR-RES readout_name=GI50 recorded_result="35.5 µM (inactive)"
compound=O=C(/C=C/c1ccccc1)CCN1CCCCC1 target_or_system=NCI/ADR-RES readout_name=GI50 recorded_result="38.8 µM (inactive)"
compound="O=C(O)C1C2CCC(O2)C1C(=O)Nc1cccc2cccnc12 (stereo not given)" target_or_system=NCI/ADR-RES readout_name=GI50 recorded_result="> 100 µM (inactive)"
compound="CCOC(=O)C1C(c2ccco2)C2(C#N)C(=N)OC1(C)C2(C#N)C#N (stereo not given)" target_or_system=NCI/ADR-RES readout_name=GI50 recorded_result="> 100 µM (inactive)"
compound=CC(C)(C)OC(=O)NCCNCCNc1ccccc1 target_or_system=NCI/ADR-RES readout_name=GI50 recorded_result="> 100 µM (inactive)"
compound="CCCCCCCC1(N=[N+]=[N-])C(=O)c2ccccc2N(C)C1=O (stereo not given)" target_or_system=NCI/ADR-RES readout_name=GI50 recorded_result="35.6 µM (inactive)"

====

System: XF498
Assay: NCI tumour cell line growth inhibition, 48 h
Calls of active or inactive are those of the source. No stated cut-off is given here; in the data, active = GI50 up to about 1.1 µM and inactive = higher.
Labels: t = active, f = inactive

molecule=COc1cc2c(c(OC)c1OC)-c1ccc(SC)c(=O)cc1[C@@H](NC(=O)C(F)(F)F)CC2 discrete_label=t
molecule="C=C1CC(OC)(C(OC)C(=O)N[C@H]2OCO[C@H]3C2O[C@H](C[C@@H](COC)OC)C(C)(C)C3OC)O[C@H](C)[C@@H]1C (some centres undefined)" discrete_label=t
molecule="CC(=O)O[C@H]1CC[C@@]2(C)C(=CC[C@@H]3C2CC[C@]2(C)Nc4oncc4CC32)C1 (some centres undefined)" discrete_label=f
molecule=CC(=O)O[C@H]1CC[C@@]2(C)[C@H](CC[C@@H]3[C@@H]2CC[C@]2(C)[C@@H](c4ccc(=O)oc4)C[C@H]4O[C@]342)C1 discrete_label=f
molecule="Cn1cc2ccccc2c1-c1nc(F)nc(Oc2ccc3c(c2)CC[C@@H]2C3CC[C@@]3(C)C2C[C@H](O)[C@@H]3O)n1 (some centres undefined)" discrete_label=f
molecule="Cc1ccc(S(=O)(=O)C2c3nc4ccccc4cc3-c3nc4ccccc4nc32)cc1 (centres undefined)" discrete_label=f
molecule=Clc1ccc(CNc2nc3ccccc3nc2-c2cccs2)c(Cl)c1 discrete_label=f
molecule=O=C(Cc1nc2ccccc2s1)C(=O)Nc1ccc(Cl)cc1Cl discrete_label=f
molecule="COC(=O)C(CC(=O)Nc1ccc(C)cc1)C(=O)C(=O)Nc1c(C(C)C)cccc1C(C)C (centres undefined)" discrete_label=f
molecule="Cc1ccc(C(O)/C(=N/N)c2nc3ccc([N+](=O)[O-])cc3nc2O)cc1 (centres undefined)" discrete_label=f
molecule="C=C[C@@]12CCCCC1C/C(=C(/O)OC)C(=O)C2 (some centres undefined)" discrete_label=f
molecule=COc1cc(C2(C)SCCCS2)c(I)c(OC)c1OC discrete_label=f
molecule="CCC1C(=O)OCc2c1cc1n(c2=O)CCC12OCCO2 (centres undefined)" discrete_label=f
molecule=Cc1nc(N)sc1C(=O)/C=C/c1ccc(/C=C/C(=O)c2sc(NC(=O)CCCCCCCCC(=O)Nc3nc(C)c(C(=O)/C=C/c4ccc(/C=C/C(=O)c5sc(N)nc5C)cc4)s3)nc2C)cc1 discrete_label=f
molecule="Cc1c2n(c3ccccc13)CC1C2N(C)OC1(C)C (centres undefined)" discrete_label=f
molecule=COc1cc(N)c2[nH]c3c(C)ccc(C)c3c2c1 discrete_label=f
molecule="COc1ccc(C(=O)C(C(=O)C(=O)Nc2ccc(Cl)c(Cl)c2)c2ccc(OC)cc2)cc1 (centres undefined)" discrete_label=f
molecule=Cc1nc2cc3nc4ccccc4c(O)c3cc2s1 discrete_label=f
molecule="Nc1ccc2c(c1)C1=NNC(=O)CC1C2 (centres undefined)" discrete_label=f

====

In this section we review reported GI50 values for a set of compounds.
Tested on: A549
Assay: NCI tumour cell line growth inhibition, 48 h
Activity calls are given as the source filed them. Rule as the data show it: active = GI50 up to about 1.1 µM and inactive = higher.
readout-name: GI50

compound=COc1ccc(/C=C2\S/C(=N/Nc3nc(-c4ccccc4)cs3)NC2=O)cc1OC readout_name=GI50 recorded_result="20.9 µM (inactive)"
compound="COC(=O)/C(=N\\NC(=S)NN)C(C(=O)C(=O)Nc1ccccc1C(N)=O)c1nc2ccccc2nc1O (stereo not given)" readout_name=GI50 recorded_result="> 100 µM (inactive)"
compound=CC(C)=CCC/C(C)=C/CC/C(C)=C/CSc1ccc(Cl)cc1C(=O)O readout_name=GI50 recorded_result="16.5 µM (inactive)"
compound=CCN(CC)CCN1c2ccccc2Sc2ccc3ccccc3c21 readout_name=GI50 recorded_result="14.2 µM (inactive)"
compound="CC12CCC3[C@@H](CC3(C)C)C(O)(CCC1=O)C2 (stereo not given in full)" readout_name=GI50 recorded_result="> 100 µM (inactive)"

====

Tested on: HOP-62
Assay: NCI tumour cell line growth inhibition, 48 h
Activity calls are given as the source filed them. No stated cut-off is given here; in the data, active = GI50 up to about 1.1 µM and inactive = higher.
Documented GI50 across a set of compounds
readout-name: GI50

compound=COc1cc(N)c2[nH]c3c(C)ccc(C)c3c2c1 recorded_result="> 100 µM (inactive)"
compound="O=CC1OC(=O)c2cc(O)c(O)c(O)c2-c2c(cc(O)c(O)c2O)C(=O)OC1C1OC(=O)c2cc(O)c(O)c(O)c2-c2c(O)c(O)c3oc(=O)c4c(c(O)c(O)c5oc(=O)c2c3c54)-c2c(cc(O)c(O)c2O)C(=O)OCC1O (centres undefined)" recorded_result="44.3 µM (inactive)"
compound="CC(=O)NC1=C(C)C(=O)c2c(nc3n2CCC3OC(=O)c2ccccc2)C1=O (centres undefined)" recorded_result="2.34 µM (inactive)"
compound=CN(Cc1cnc2nc(N)nc(N)c2n1)c1ccc(C(=O)NCCCS(=O)(=O)O)cc1 recorded_result="> 100 µM (inactive)"

====

Tested on: LOX IMVI
Experiment: NCI tumour cell line growth inhibition, 48 h
Activity calls are given as the source filed them. Rule as the data show it: active = GI50 up to about 1.1 µM and inactive = higher.
readout-name: GI50

compound=COc1cccc(-c2cc(O)c3ccccc3n2)c1 recorded_result="5.18 µM (inactive)"
compound=NN/C(=N\c1ccc(Cl)cc1)NS(=O)(=O)c1ccc(S(=O)(=O)c2ccccc2)s1 recorded_result="15.3 µM (inactive)"
compound="CC1N=C(c2ccccc2)OC1=O (stereo unspecified)" recorded_result="> 100 µM (inactive)"
compound="COc1cc([C@@H]2OCC3C(c4ccc5c(c4)OCO5)OCC32)cc(OC)c1OC (stereo partly specified)" recorded_result="> 100 µM (inactive)"
compound="Cc1cc2c(c(/C=N/c3ccccc3O)c1)OC1(C=C2)Oc2ccccc2C(=O)N1C (stereo unspecified)" recorded_result="12.8 µM (inactive)"
compound=C=C(/C=C/C=C(/CCC=C(C)C)COC(C)=O)[C@@H]1CC[C@]2([C@H](CCCO)/C(=C(/C)C=O)CC[C@]2(C)O)[C@@H]1O recorded_result="10.4 µM (inactive)"
compound=O=C1c2ccc3c4ccccc4n(Cc4ccccc4)c3c2C(=O)N1c1ccccc1 recorded_result="16.2 µM (inactive)"
compound="CCOC(=O)C(NO)C(Sc1ccccc1)c1ccc(OC)cc1 (stereo unspecified)" recorded_result="> 100 µM (inactive)"
compound="CCC(CN(C)C)C(=O)c1ccco1 (stereo unspecified)" recorded_result="> 100 µM (inactive)"
compound=CN(/N=C/c1ccnc2ccccc12)c1c([N+](=O)[O-])cc([N+](=O)[O-])cc1[N+](=O)[O-] recorded_result="48.2 µM (inactive)"
compound=COc1ccc(/C=C2\S/C(=N/Nc3nc(-c4ccccc4)cs3)NC2=O)cc1OC recorded_result="23.3 µM (inactive)"
compound=COc1ccc2c(c1)-c1[nH]c3ccc(OC)cc3c1CC2 recorded_result="15.2 µM (inactive)"
compound="COC(=O)C(=O)C(C(=O)C(=O)Nc1cccc(C(C)=O)c1)c1nc2ccc([N+](=O)[O-])cc2nc1O (stereo unspecified)" recorded_result="> 100 µM (inactive)"
compound=CN/N=C(/CC(=O)c1sc(NNC(C)=O)nc1C)C(=O)Nc1ccc(OC)cc1OC recorded_result="> 100 µM (inactive)"
compound="COC(=O)C1(Cc2ccc3c(c2)CCC3)Cc2ccc3c(c2C1)CCC3 (stereo unspecified)" recorded_result="16.8 µM (inactive)"
compound=O=S(=O)(c1ccc(Br)cc1)N1CCN(S(=O)(=O)c2ccc(Br)cc2)CC1 recorded_result="> 100 µM (inactive)"
compound=COC(=O)/C=C(C)/C=C/c1cc(C(C)=O)c(C)o1 recorded_result="> 100 µM (inactive)"
compound=O=C1/C(=C/c2cccs2)NC(=S)N1CN1CCOCC1 recorded_result="> 100 µM (inactive)"
compound=O=c1ccc(=O)c2c1c1[nH]c3ccccc3c1c1c(=O)c3ccccc3c(=O)c21 recorded_result="> 10 µM (inactive)"
compound=O=[N+]([O-])c1ccc(NSc2ccccc2)cc1 recorded_result="13.1 µM (inactive)"
compound="O=C(Nc1ccc(C(F)(F)F)cc1[N+](=O)[O-])C(=O)C1NC(=S)NC1=O (stereo unspecified)" recorded_result="> 100 µM (inactive)"
